- Test system: LXRb:RXRa (NR concentration 270 nM, RXRa partner concentration 90 nM)
- test.description: PBM binding z-score (relative to random genomic background probes); higher = stronger binding; sequences stand for … in GC…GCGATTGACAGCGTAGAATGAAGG
measure.name: PBM binding z-score
Answer with a number only.

Value lookup for PBM binding z-score; key = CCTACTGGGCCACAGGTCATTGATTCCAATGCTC
2.12

Now the sequence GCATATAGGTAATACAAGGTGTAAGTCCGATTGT
-0.487

Same thing, different sequence: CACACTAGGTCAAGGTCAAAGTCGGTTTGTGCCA
4.87

Please give the result for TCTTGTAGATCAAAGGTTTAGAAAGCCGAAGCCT too.
0.454

Now this one: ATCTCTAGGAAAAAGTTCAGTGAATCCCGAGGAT
0.0384

Next up: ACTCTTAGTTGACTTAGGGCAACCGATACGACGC
0.398

What do you get for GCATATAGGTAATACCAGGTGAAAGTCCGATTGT ?
0.185

# iterate: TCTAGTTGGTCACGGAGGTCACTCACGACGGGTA
2.84

Then what about the sequence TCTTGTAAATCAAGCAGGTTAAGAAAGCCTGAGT ?
0.526

Proceed to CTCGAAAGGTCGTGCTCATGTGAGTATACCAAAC
3.54

What about this sequence? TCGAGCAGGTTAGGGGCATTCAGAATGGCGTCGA
0.523

# iterate: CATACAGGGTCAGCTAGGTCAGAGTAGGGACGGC
3.24

###

- Tested on: PPARg:RXRa 90nM:30nM, anti-RXR (NR concentration 90 nM, RXRa partner concentration 30 nM)
- test.description: PBM binding z-score (relative to random genomic background probes); higher = stronger binding; sequences stand for … in GC…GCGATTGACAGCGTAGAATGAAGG
measure.name: PBM binding z-score
Quick one: just the number, no unit, thanks!

What PBM binding z-score value was documented for this sequence, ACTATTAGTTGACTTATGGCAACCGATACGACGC ?
0.352

Input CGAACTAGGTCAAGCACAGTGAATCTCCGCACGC
6.09

Then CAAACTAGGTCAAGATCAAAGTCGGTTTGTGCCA ?
6.19

For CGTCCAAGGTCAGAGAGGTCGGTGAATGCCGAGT then?
1.8

Same for TCATATAGGTTATACAGGTGAAAGTCGGCATCTA
3.58

And then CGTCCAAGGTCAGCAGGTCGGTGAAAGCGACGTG , what is it?
2.15

Similarly, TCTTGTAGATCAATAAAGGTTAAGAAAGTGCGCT ?
2.82

Queued: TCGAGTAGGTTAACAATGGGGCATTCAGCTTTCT
1.29

// repeat for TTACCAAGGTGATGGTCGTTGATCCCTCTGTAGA and report
0.0112

Then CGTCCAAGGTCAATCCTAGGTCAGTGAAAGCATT ?
3.63

And for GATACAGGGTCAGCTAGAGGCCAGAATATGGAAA ?
2.25

And then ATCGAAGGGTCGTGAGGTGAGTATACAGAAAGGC , what is it?
1.23

###

- System: FXR:RXRa (NR concentration 270 nM, RXRa partner concentration 90 nM)
- test.description: PBM binding z-score (relative to random genomic background probes); higher = stronger binding; sequences stand for … in GC…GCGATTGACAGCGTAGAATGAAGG
I'd be grateful if you could share measured PBM binding z-score for these entries.
Format: numeric value only, no unit, no commentary.

Fill blank: measured PBM binding z-score of the sequence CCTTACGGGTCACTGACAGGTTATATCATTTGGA is ____.
5.35

Also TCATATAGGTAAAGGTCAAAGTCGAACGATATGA , if possible.
6.53

Note, next up: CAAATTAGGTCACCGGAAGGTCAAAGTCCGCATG
6.61

What do you have for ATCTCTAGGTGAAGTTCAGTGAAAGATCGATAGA ?
0.465

Cool, now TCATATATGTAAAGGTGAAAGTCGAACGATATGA
0.775

Moving on to the next sequence: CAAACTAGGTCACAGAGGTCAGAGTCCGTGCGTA
6.35

Also need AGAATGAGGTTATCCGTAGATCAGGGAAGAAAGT , thanks.
2.59

Try this sequence next: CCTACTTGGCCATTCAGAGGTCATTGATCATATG
3.12

Now this one: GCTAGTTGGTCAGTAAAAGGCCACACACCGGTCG
-0.0469

Same for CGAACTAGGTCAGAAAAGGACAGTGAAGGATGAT
1.84

Then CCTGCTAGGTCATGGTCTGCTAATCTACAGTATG ?
3.19

Also, TCTTGTAGATCAGCAGGTTAAGAGAGCTGGCCAA please.
-0.327
